Each recorded value in this set is attributed to patent US20070020327A1.

ASSAYED_SYSTEM: HLA-A*0203 (human)
RUN_DESCRIPTION: competition with 125I-labelled standard peptide 941.01 for purified HLA, gel filtration
STUDY_CONDITIONS: scale: ratio
ASSAY_ENDPOINT: binding affinity ratio

Please review the entries below; each comes with its answer.
# BINDER, binding affinity ratio
data = [
    ("VVHYRKWIKDT (modifications not checked) [… (PSA, position 242, 11 amino acids)]", 0.0002),
    ("GLPTQEPA (modifications not checked) [Kallikrein (hK2) peptide GLPTQEPA (position 140)]", -0.0001),
    ("VVHYRKWI (modifications not checked) [VVHYRKWI (Kallikrein, position 246, 8 amino acids)]", -0.0001),
]

[I] VVHYRKWI (modifications not checked) [VVHYRKWI (PSA, position 242, 8 amino acids)]
[II] WAHCGGVL (modifications not checked) [WAHCGGVL (Kallikrein, position 47, 8 amino acids)]
Inquiry: Of I and II , which carries the smaller reported binding affinity ratio figure? Your answer should be the label of the entry you select.
Reply text: I
